Source listed as patent US20240034743A9.

- Experimental System: EGFR WT (wild type EGFR) (Homo sapiens (Human), UniProt P00533)
- Sequence (P00533 25-1210): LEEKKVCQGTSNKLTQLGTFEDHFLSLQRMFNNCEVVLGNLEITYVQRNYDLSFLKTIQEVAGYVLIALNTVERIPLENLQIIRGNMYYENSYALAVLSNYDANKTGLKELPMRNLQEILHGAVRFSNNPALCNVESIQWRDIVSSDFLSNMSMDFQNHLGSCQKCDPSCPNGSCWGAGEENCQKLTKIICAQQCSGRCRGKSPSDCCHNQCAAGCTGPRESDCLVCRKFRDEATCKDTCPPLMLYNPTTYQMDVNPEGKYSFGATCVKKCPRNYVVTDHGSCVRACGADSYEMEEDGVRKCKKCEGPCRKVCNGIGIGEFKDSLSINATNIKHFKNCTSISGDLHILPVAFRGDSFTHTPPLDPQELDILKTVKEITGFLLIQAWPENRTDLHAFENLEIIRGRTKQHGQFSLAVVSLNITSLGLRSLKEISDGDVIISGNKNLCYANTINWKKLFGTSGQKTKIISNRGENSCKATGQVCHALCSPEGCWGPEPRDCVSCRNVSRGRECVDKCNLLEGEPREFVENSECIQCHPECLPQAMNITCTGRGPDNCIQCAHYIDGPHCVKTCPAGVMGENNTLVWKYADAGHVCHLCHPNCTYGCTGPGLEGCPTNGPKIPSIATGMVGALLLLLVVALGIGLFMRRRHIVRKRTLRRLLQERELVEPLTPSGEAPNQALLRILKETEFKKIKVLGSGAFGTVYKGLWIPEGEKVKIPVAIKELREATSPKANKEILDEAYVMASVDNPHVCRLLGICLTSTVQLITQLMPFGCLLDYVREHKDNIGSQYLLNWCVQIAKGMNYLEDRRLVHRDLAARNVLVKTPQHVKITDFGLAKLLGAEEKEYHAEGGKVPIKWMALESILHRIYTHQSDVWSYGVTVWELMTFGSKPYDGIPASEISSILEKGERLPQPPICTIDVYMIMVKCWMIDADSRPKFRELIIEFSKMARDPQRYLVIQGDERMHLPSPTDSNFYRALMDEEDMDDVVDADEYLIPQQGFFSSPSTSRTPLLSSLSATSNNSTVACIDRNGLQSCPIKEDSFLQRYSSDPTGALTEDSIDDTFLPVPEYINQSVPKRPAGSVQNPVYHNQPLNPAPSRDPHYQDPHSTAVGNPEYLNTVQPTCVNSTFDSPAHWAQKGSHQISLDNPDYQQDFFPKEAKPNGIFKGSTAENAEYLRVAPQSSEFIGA
- Experimental Details: In vitro enzymatic TR-FRET (HTRF KinEASE-TK) kinase assay, EGFR WT
- Type: biochemical
- Experimental Context: kinase activity, TR-FRET; read-out: EGFR (WT) IC50
pIC50: −log10 of the molar value.
Measurement Type: pIC50

-- ask Under EGFR WT (wild type EGFR) (Homo sapiens (Human), UniProt P00533), report pIC50 for Cc1cnc(Nc2cc3c(cc2OC(C)C)N(C)CCc2c-3cnn2C)nc1Nc1ccccc1P(C)(C)=O
-- reply 7.00 to 7.30

-- ask # lookup: EGFR WT (wild type EGFR) (Homo sapiens (Human), UniProt P00533) pIC50, key = COc1cc2c(cc1Nc1ncc(Cl)c(Nc3cccnc3P(C)(C)=O)n1)-c1cnn(C)c1CCN2C(C)C
-- reply 8.00 to 9.00

-- ask Fetch value of pIC50 on EGFR WT (wild type EGFR) (Homo sapiens (Human), UniProt P00533) for COc1nc2c(cc1Nc1ncc(Br)c(Nc3ccc4nccnc4c3NS(C)(=O)=O)n1)-c1cnn(C)c1CCN2C(C)C .
-- reply 8.00 to 9.00

-- ask For EGFR WT (wild type EGFR) (Homo sapiens (Human), UniProt P00533), give pIC50 of the listed compound: COc1cc2c(cc1Nc1ncc(Br)c(Nc3ccc4nccnc4c3NS(C)(=O)=O)n1)-c1cn(C)nc1CCN2C(C)C
-- reply 8.00 to 9.00

-- ask Return reported pIC50 for target or system EGFR WT (wild type EGFR) (Homo sapiens (Human), UniProt P00533), item COc1cc2c(cc1Nc1nc(Nc3ccccc3P(C)(C)=O)c3sccc3n1)-c1cnn(C)c1CCN2C .
-- reply 7.30 to 8.00

-- ask Tell me its pIC50 on EGFR WT (wild type EGFR) (Homo sapiens (Human), UniProt P00533): COc1cc2c(cc1Nc1ncc(Br)c(Nc3ccccc3P(C)(C)=O)n1)-c1cccnc1CCN2C
-- reply 7.00 to 7.30

-- ask GET pIC50 where system = EGFR WT (wild type EGFR) (Homo sapiens (Human), UniProt P00533) and item = COc1cc2c(cc1Nc1ncc(Br)c(Nc3ccccc3P(C)(C)=O)n1)-c1cnnn1CCN2C
-- reply 7.30 to 8.00

-- ask // fetch pIC50 for COc1cc2c(cc1Nc1nc(Nc3ccccc3P(C)(C)=O)c3cc[nH]c3n1)-c1cnn(C)c1CCN2C ; system: EGFR WT (wild type EGFR) (Homo sapiens (Human), UniProt P00533)
-- reply 8.00 to 9.00

* * *

- System: Ba/F3_L858R/T790M/C797S cells
- Experimental Details: Ba/F3_L858R/T790M/C797S cell proliferation inhibition assay (CellTiter-Glo)
- Type: cell-based
- Experimental Context: cell proliferation, 72 h, CellTiter-Glo; read-out: Ba/F3 (L858R/T790M/C797S) IC50
Measurement Type: IC50

Study these solved cases before continuing.
COc1cc2c(cc1Nc1ncc(Br)c(Nc3ccccc3P(C)(C)=O)n1)-c1cn(C3COC3)nc1CCN2C(C)C [Compound 77B] : 50 to 100 nM
COc1cc2c(cc1Nc1ncc(Br)c(Nc3ccccc3P(C)(C)=O)n1)-c1cnn(C)c1CCN2[C@@H]1CCN(C)C[C@H]1F (single isomer, unassigned) [Compound 66A] : 10 to 50 nM
COc1cc2c(cc1Nc1ncc(Br)c(Nc3ccccc3P(C)(C)=O)n1)-c1cnn(C3COC3)c1CCN2C(C)C [Compound 77A] : 10 to 50 nM

-- ask Name the recorded IC50 of the item COc1cc2c(cc1Nc1ncc(Br)c(Nc3ccccc3P(C)(C)=O)n1)-c1cnn(C)c1CCN2[C@H]1CCN(C)C[C@@H]1F (single isomer, unassigned) [Compound 66B] in your answer.
-- reply 10 to 50 nM

-- ask Specify IC50 for COc1cc2c(cc1Nc1ncc(Br)c(Nc3ccc4nccnc4c3P(C)(C)=O)n1)-c1cnn(C)c1CCN2C1CCN(C)C[C@@H]1F (some centres unmarked) and stop.
-- reply < 10 nM

* * *

- Experimental System: EGFR L858R/T790M/C797S (Homo sapiens (Human), UniProt P00533, C797S/L858R/T790M)
- Sequence (P00533 25-1210 T790M/C797S/L858R): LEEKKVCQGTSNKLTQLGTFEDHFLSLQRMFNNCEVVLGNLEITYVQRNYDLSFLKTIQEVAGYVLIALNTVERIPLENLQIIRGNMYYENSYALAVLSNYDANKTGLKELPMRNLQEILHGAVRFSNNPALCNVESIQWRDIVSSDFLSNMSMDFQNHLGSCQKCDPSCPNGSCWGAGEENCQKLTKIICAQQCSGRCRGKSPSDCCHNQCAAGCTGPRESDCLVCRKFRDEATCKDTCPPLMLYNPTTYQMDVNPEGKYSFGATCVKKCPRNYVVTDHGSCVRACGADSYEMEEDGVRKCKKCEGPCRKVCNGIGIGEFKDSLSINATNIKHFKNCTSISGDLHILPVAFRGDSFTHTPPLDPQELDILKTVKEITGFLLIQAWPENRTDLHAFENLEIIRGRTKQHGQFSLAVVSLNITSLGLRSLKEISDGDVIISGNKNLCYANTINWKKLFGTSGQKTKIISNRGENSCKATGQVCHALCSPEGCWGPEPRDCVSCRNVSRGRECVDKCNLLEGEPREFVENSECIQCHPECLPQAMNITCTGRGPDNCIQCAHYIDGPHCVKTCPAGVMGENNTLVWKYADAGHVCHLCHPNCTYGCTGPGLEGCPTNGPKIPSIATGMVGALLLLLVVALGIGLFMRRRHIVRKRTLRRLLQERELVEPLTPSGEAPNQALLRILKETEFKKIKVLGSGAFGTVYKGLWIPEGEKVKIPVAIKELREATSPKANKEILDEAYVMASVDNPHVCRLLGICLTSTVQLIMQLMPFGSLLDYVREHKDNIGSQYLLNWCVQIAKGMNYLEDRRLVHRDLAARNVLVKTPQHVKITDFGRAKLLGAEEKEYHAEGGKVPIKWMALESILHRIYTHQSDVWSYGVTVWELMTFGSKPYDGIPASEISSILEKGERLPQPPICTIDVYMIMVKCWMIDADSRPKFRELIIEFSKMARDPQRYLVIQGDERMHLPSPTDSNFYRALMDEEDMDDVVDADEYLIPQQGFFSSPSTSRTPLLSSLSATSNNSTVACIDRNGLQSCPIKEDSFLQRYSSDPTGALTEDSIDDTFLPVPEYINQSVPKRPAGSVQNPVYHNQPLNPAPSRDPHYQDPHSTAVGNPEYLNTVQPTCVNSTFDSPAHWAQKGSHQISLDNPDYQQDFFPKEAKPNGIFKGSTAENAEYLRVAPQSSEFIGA
- Experimental Details: In vitro enzymatic TR-FRET (HTRF KinEASE-TK) kinase assay, EGFR L858R/T790M/C797S
- Experimental Context: kinase activity
pIC50: −log10 of the molar value.
Measurement Type: pIC50

Examples with their reported pIC50 follow.
COc1cc2c(cc1Nc1ncc(Br)c(Nc3ccc4nccnc4c3NS(C)(=O)=O)n1)-c1cnn(C)c1CCN2C(C)C : > 9.00
COc1cc2c(cc1Nc1ncc(Br)c(Nc3ccc4nccnc4c3NS(C)(=O)=O)n1)-c1cnn(C)c1CCN2C(C)(C)CF : 8.00 to 9.00
COc1cc2c(cc1Nc1ncc(C3CC3)c(Nc3ccccc3P(C)(C)=O)n1)-c1cnn(C)c1CCN2C : > 9.00

With those in mind, consider the next compound.
-- ask Kindly indicate its recorded pIC50. Item: CCN(c1c(Nc2nc(Nc3cc4c(cc3OC)N(C(C)C)CCc3c-4cnn3C)ncc2Br)ccc2nccnc12)S(C)(=O)=O
-- reply 8.00 to 9.00

* * *

- Experimental System: EGFR L858R/T790M/C797S (Homo sapiens (Human), UniProt P00533, C797S/L858R/T790M)
- Experimental Details: In vitro enzymatic TR-FRET (HTRF KinEASE-TK) kinase assay, EGFR L858R/T790M/C797S
- Experimental Context: kinase activity
Measurement Type: IC50

COc1ccc(CN2Cc3cc(OC)c(Nc4ncc(Br)c(Nc5ccc6nccnc6c5P(C)(C)=O)n4)cc3-c3cnn(C)c3C2)c(OC)c1 : 1 to 10 nM
COc1cc2c(cc1Nc1ncc(Br)c(Nc3ccccc3P(C)(C)=O)n1)-c1cnn(C)c1CCN2[C@H]1CCN(C)C[C@@H]1F (single isomer, unassigned) [Compound 66B] : < 1 nM
COc1nc2c(cc1Nc1ncc(Br)c(Nc3ccc4nccnc4c3NS(C)(=O)=O)n1)-c1cnn(C)c1CCN2C(C)C : 1 to 10 nM
COc1cc2c(cc1Nc1ncc(Br)c(Nc3ccc4nccnc4c3NS(C)(=O)=O)n1)-c1cnn(C)c1CCN2C1CCC1 : 1 to 10 nM

-- ask Hello, please tell me recorded IC50 for this one: COc1cc2c(cc1Nc1ncc(Br)c(Nc3ccccc3P(C)(C)=O)n1)-c1cnn(C)c1CCC2N(C)C (stereo not drawn)
-- reply < 1 nM

-- ask Give the value of IC50 reported for the following: COc1cc2c(cc1Nc1ncc(Br)c(Nc3ccc4nccnc4c3NS(C)(=O)=O)n1)-c1cnn(C)c1CCN2C1CCOCC1
-- reply < 1 nM

* * *

- Experimental System: EGFR WT (wild type EGFR) (Homo sapiens (Human), UniProt P00533)
- Experimental Details: In vitro enzymatic TR-FRET (HTRF KinEASE-TK) kinase assay, EGFR WT
- Type: biochemical
- Experimental Context: kinase activity, TR-FRET; read-out: EGFR (WT) IC50
Measurement Type: IC50

Past entries and their recorded results:
COc1cc2c(cc1Nc1ncc(Br)c(Nc3cccnc3P(C)(C)=O)n1)-c1cnn(C)c1CCN2C : 1 to 10 nM
COc1nc2c(cc1Nc1ncc(Br)c(Nc3ccc4nccnc4c3P(C)(C)=O)n1)-c1cnn(C)c1CCN2C(C)C : 1 to 10 nM
COc1cc2c(cc1Nc1ncc(Br)c(Nc3ccc4nccnc4c3P(C)(C)=O)n1)-c1cnn(C)c1CCN2C(C)C : 1 to 10 nM
COc1cc2c(cc1Nc1ncc(Br)c(Nc3ccccc3N(C(C)C)S(C)(=O)=O)n1)-c1cnn(C)c1CCN2 : 50 to 100 nM
COc1cc2c(cc1Nc1ncc(Br)c(Nc3ccccc3P(C)(C)=O)n1)-c1cnn(C)c1C(F)(F)CN2 : 1 to 10 nM
COc1cc2c(cc1Nc1ncc(Br)c(Nc3ccccc3P(C)(C)=O)n1)-c1cnc(C)n1CCN2C : 10 to 50 nM
COc1cc2c(cc1Nc1ncc(Br)c(Nc3ccc4nccnc4c3P(C)(C)=O)n1)-c1cnn(C)c1CCN2C(C)=O : 10 to 50 nM
COc1cc2c(cc1Nc1ncc(Br)c(Nc3ccc4nccnc4c3P(C)(C)=O)n1)-c1cnn(C)c1CNC2 : 1 to 10 nM
COc1cc2c(cc1Nc1ncc(C)c(Nc3ccccc3P(C)(C)=O)n1)-c1cnn(C)c1CCN2C#N : 10 to 50 nM
COc1cc2c(cc1Nc1ncc(Br)c(Nc3ccc4nccnc4c3P(C)(C)=O)n1)-c1cnn(C)c1CCN2 : 1 to 10 nM

-- ask Output IC50 of COc1cc2c(cc1Nc1ncc(C(F)(F)F)c(Nc3ccccc3P(C)(C)=O)n1)-c1cnn(C)c1CCN2C
-- reply 10 to 50 nM

-- ask Give the value of IC50 reported for the following: COc1cc2c(cc1Nc1ncc(Br)c(Nc3ccccc3P(C)(C)=O)n1)-c1cnn(C)c1CCC2N(C)C (stereo not drawn)
-- reply 1 to 10 nM

-- ask Give IC50 for COc1cc2c(cc1Nc1ncc(C3CC3)c(Nc3ccccc3P(C)(C)=O)n1)-c1cnn(C)c1CCN2C
-- reply 10 to 50 nM

-- ask Please report IC50 for the following compound: COc1cc2c(cc1Nc1ncc(Br)c(Nc3ccc4nccnc4c3N(C)S(C)(=O)=O)n1)-c1cnn(C)c1CCN2C(C)C
-- reply 1 to 10 nM

-- ask Give the reported IC50 for this compound. COc1cc2c(cc1Nc1ncc(Br)c(Nc3ccc4nccnc4c3P(C)(C)=O)n1)-c1cnn(C)c1CCO2
-- reply 1 to 10 nM
